# Measurement target: T1, CD47 on the surface of human red blood cells (human, UniProt Q08722 19-323)
# T1 construct: whole, on cells; Same protein as m3, on red blood cells; also called hRBC; RBC
# Experiment description: FACS, RBC, 200 nM
Recorded endpoint: FACS (MFI)
Numbers only; they are read as MFI.

Below, each entry is followed by its recorded FACS (MFI) result.
Quick one: give measured FACS (MFI) for hz140-Hm13/hz182-Lm8 (antibody, V domains shown, also called h182Lmut8) VH: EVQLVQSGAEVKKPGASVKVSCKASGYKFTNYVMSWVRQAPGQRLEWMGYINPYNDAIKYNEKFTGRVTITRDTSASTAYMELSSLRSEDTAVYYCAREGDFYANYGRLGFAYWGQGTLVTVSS VL: DIQMTQSPSSLSASVGDRVTITCRASQDISNYLNWYQQKPGKAPKLLLYYTSRLHSGVPSRFSGSGSGTDYTLTISSLQPEDFATYFCQQGAGRPRTFGGGTKVEIKR
40800

Quick one: give measured FACS (MFI) for hz140-Hm13/hz182-Lm6 (antibody, V domains shown) VH: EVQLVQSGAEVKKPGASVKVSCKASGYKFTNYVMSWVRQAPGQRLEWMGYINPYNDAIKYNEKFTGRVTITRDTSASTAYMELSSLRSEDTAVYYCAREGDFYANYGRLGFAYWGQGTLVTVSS VL: DIQMTQSPSSLSASVGDRVTITCRASQDISNYLNWYQQKPGKAPKLLLYYTSRLHSGVPSRFSGSGSGTDYTLTISSLQPEDFATYFCQQGATRPYTFGGGTKVEIKR
695

Quick one: give measured FACS (MFI) for hz140-Hm13/hz182-Lm7 (antibody, V domains shown) VH: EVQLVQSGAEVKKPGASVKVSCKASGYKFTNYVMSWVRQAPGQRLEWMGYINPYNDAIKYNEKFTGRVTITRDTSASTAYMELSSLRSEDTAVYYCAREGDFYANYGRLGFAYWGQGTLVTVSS VL: DIQMTQSPSSLSASVGDRVTITCRASQDISNYLNWYQQKPGKAPKLLLYYTSRLHSGVPSRFSGSGSGTDYTLTISSLQPEDFATYFCQQGAGFPYTFGGGTKVEIKR
349

---
Quick one: give measured FACS (MFI) for hz140-Hm13/hz182-Lm1 (antibody, V domains shown, also called hz182-Lml) VH: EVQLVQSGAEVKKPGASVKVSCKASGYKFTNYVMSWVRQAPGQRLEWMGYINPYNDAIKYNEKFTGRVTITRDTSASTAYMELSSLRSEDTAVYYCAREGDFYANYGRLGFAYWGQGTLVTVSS VL: DIQMTQSPSSLSASVGDRVTITCRASQDISNYLNWYQQKPGKAPKLLIYYTSRLHSGVPSRFSGSGSGTDYTLTISSLQPEDFATYFCQQGAGRPYTFGGGTKVEIKR
2320

Quick one: give measured FACS (MFI) for hz140-Hm13/hz182-Lm3 (antibody, V domains shown) VH: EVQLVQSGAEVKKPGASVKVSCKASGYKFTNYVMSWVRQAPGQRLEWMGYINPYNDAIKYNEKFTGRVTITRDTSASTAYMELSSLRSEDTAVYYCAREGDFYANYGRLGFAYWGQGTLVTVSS VL: DIQMTQSPSSLSASVGDRVTITCRASQDISNYLNWYQQKPGKAPKLLLYYTSRLHSGVPSRFSGSGSGTDYTLTISSLQPEDIATYFCQQGAGRPYTFGGGTKVEIKR
874

Quick one: give measured FACS (MFI) for hz140-Hm13/hz182-Lm9 (antibody, V domains shown) VH: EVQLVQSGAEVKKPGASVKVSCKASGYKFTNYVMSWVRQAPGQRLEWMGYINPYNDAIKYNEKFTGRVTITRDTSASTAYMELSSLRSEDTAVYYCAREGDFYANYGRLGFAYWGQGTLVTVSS VL: DIQMTQSPSSLSASVGDRVTITCRASQDISNYLNWYQQKPGKAPKLLLYYTSRLHSGVPSRFSGSGSGTDYTLTISSLQPEDFATYFCQQGDTFPYTFGGGTKVEIKR
1750

Quick one: give measured FACS (MFI) for hz140-Hm13/hz182-L (antibody, V domains shown) VH: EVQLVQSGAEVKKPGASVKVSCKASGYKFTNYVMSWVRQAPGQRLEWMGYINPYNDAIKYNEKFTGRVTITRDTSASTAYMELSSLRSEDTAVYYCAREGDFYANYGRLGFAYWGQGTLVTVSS VL: DIQMTQSPSSLSASVGDRVTITCRASQDISNYLNWYQQKPGKAPKLLLYYTSRLHSGVPSRFSGSGSGTDYTLTISSLQPEDFATYFCQQGAGRPYTFGGGTKVEIK
2060

Quick one: give measured FACS (MFI) for hz140-Hm13/hz182-Lm5 (antibody, V domains shown) VH: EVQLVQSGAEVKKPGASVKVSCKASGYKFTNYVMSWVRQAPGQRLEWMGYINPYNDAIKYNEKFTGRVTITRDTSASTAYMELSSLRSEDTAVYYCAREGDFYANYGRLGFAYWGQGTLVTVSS VL: DIQMTQSPSSLSASVGDRVTITCRASQDISNYLNWYQQKPGKAPKLLLYYTSRLHSGVPSRFSGSGSGTDYTLTISSLQPEDFATYFCQQGDGRPYTFGGGTKVEIKR
3310

Quick one: give measured FACS (MFI) for hz140-Hm13/hz182-Lm11 (antibody, V domains shown) VH: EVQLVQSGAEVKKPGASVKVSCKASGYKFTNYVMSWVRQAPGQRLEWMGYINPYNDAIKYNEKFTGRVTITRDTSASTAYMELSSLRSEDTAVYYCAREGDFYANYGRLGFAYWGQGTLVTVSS VL: DIQMTQSPSSLSASVGDRVTITCRASQDISNYLNWYQQKPGKAPKLLLYYTSRLHSGVPSRFSGSGSGTDYTLTISSLQPEDIATYFCQQGDTFPYTFGGGTKVEIKR
321
